Hey, just so you know, these numbers are from patent US20210179726A1.

LogEC50: recorded values
- Subject of test: T1, hCD27-EGFP on HEK293 cells (human, UniProt P26842 20-260)
- T1 construct: EGFP fusion expressed on transfected HEK293 cells; also called CD27-EGFP cells; cell surface CD27
- T1 sequence (looked up): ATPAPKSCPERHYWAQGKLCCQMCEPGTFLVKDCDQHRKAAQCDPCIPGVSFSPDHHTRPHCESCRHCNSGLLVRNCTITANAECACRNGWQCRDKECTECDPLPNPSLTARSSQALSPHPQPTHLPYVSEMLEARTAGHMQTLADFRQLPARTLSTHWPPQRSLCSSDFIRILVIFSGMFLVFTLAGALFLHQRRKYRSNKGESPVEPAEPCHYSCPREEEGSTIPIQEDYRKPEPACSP
- Test: FACS titration on CD27-EGFP HEK293 cells, 8 three-fold dilutions from 20 µg/ml, anti-human Ig-APC secondary, MFI; table drawn under the plot, unit from the x axis; no upper plateau reached

// solved cases for LogEC50 follow
Binder: d9419 (antibody, human IgG1, V domains shown, not shown: a dimerising Fc or GST, Humanized m2F11, human IgG1 / kappa) VH: EVHLQESGGALVKPGGSLRLSCAASGFTFSSYAMSWVRQKPEKNLEWVAIIGDGDTYTYYPDSVKGRFTISRDNAKNTLYLQMSDLKSEDTAMYYCVRTRGGPFDYWGQGTTLTVSS VL: EILLTQSPAFMSATPGEKVTITCSASSSVGSMHWYQQKSGQSPRRLIYDTSKLASGVPDRFSGSGSGTDYTLTISSLEAEDAATYYCQQWSSIPPTFGAGTTLELK
LogEC50: 0.564 Log10(ug/ml)

Binder: 9424 (antibody, human IgG1, V domains shown, not shown: a dimerising Fc or GST, Humanized m2F11, human IgG1 / kappa) VH: EVHLQESGGGLVKPGGSLRLSCAASGFTFSSYAMSWVRQTPEKGLEWVAIIGDGDTYTYYPDSVKGRFTISRDNAKNTLYLQMNSLKSEDTAMYYCVRTRGGPFDYWGQGTTLTVSS VL: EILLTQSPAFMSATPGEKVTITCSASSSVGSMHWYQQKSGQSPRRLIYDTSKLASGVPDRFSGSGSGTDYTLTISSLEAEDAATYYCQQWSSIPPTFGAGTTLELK
LogEC50: 0.546 Log10(ug/ml)

Sample 14822 (antibody, human IgG1, V domains shown, not shown: a dimerising Fc or GST, Humanized m2F11, human IgG1 / kappa) VH: EVHLQESGGGLVKPGGSLRLSCAASGFTFSSYAMSWVRQMPGKGLEWVAIIGDGDTYTYYPDSVKGRFTISRDNSKNTLYLQMNSLKSEDTAMYYCVRTRGGPFDYWGQGTTLTVSS VL: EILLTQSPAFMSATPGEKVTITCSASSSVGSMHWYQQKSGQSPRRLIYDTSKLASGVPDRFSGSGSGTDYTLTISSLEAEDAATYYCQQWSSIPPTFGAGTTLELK ; LogEC50 observed: 0.62 Log10(ug/ml)
